- System: COC1 cell
- ASSAY PROCEDURE: Inhibition of COC1 cell growth measured by MTT method
- Format: cell-based
- REPORTED CONDITIONS: Homo sapiens; COC1 cells, 0.5 µg/ml, 48 hours
- Description: Cell lines of COC1, SMMC-7721, MCF-7and HT-29 were purchased from Chinese storage center for typical culture. Cells were cultured in RPMI1640 with 10% FCS at 37°C and 5% of CO2. Cells at log phase were harvested for the experiment. Cells growth inhibition was measured with MTT method. […] After aspirating supernatant, 100µl DMSO were added to each well and the optical density were measured at 490nm. […] The IR was analyzed using Calcusyn program to determine the IC50 of each drug
The entries below are paired with their reported inhibition at 0.5 µg/mL.
Only the number, expressed in %, is required.

Solved cases (5 shown):
compound="COc1ccc(C2c3cc(OC)c(OC)cc3C=C(C=O)C2CO)cc1OC (stereo not drawn) [VB-6]" assay_result=37
compound="COc1cc([C@H]2c3cc(OC)c(OC)cc3C=C(C=O)[C@@H]2CO)ccc1O [VB-7]" assay_result=14.3
compound="COc1cc([C@H]2c3c(ccc(O)c3OC)C=C(C=O)[C@@H]2CO)ccc1O [VB-2]" assay_result=39.9
compound="COc1cc([C@H]2c3cc(O)c(OC)cc3C=C(CO)[C@@H]2CO)ccc1O [VB-4]" assay_result=38.8
compound="COc1cc2c(cc1O)[C@H](c1ccc(O[C@@H]3O[C@H](C(=O)O)[C@@H](O)[C@H](O)[C@H]3O)c(OC)c1)[C@@H](CO)C(C=O)=C2 [VB-5]" assay_result=14.3

Exam item: Tell me the measured inhibition at 0.5 µg/mL of COc1cc([C@H]2c3cc(O)c(OC)cc3C=C(C=O)[C@@H]2CO)ccc1O [VB-1] , please.
Marked response: 42.7

The measured values listed here are drawn from patent EP1972611A1.
